Assay: Fraction unbound in human plasma by LC/MS-MS analysis
Format: ADME, cell-free
Labelling field: enter True if recorded fraction unbound is less than 0.7. Enter False if it equals or exceeds that cut-off.

| STRUCTURE | LABEL_CLASS |
| --- | --- |
| COc1cc2c(cc1F)ncc(=O)n2C[C@H](N)[C@H]1CC[C@H](NCc2ncc3c(n2)NC(=O)CO3)CC1 | True |
| Cc1cc(=O)n(C[C@H](N)[C@H]2CC[C@H](NCc3ncc4c(n3)NC(=O)CO4)CC2)c2cc(F)ccc12 | True |
| COc1ccc2ncc(=O)n(C[C@H](N)[C@H]3CC[C@H](NCc4ncc5c(n4)NC(=O)CO5)CC3)c2c1 | True |
| Cc1cc(=O)n(C[C@H](N)[C@H]2CC[C@H](NCc3ccc4c(n3)NC(=O)CO4)CC2)c2cc(F)ccc12 | True |

With those in mind, consider the next compound.
Please state whether fraction unbound is below 0.7 for "N[C@@H](Cn1c(=O)cnc2ccc(F)cc21)[C@H]1CC[C@H](NCc2ncc3c(n2)NC(=O)CO3)CC1" False

----------
Target: Potassium voltage-gated channel subfamily A member 5 (Homo sapiens, UniProt P22460)
Sequence (P22460 whole entry): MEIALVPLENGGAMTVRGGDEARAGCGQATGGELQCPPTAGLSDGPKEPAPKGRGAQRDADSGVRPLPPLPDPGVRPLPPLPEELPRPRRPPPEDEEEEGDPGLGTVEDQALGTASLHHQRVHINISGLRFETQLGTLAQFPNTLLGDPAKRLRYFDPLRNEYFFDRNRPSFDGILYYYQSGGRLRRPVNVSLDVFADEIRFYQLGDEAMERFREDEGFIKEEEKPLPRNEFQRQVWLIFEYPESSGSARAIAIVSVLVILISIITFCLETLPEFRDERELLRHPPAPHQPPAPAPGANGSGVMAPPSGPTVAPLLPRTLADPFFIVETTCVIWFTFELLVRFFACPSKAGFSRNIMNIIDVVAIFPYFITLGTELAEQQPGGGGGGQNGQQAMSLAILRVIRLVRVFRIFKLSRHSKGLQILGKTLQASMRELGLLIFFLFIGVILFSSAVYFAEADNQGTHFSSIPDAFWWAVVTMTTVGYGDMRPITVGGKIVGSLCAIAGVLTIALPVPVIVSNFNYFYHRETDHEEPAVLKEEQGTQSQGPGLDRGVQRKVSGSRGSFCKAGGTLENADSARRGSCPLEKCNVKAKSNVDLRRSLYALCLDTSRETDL
READOUT: IC50

Return the recorded IC50 value; entry: "COc1cnc2ccc(=O)n(C[C@H](N)[C@H]3CC[C@H](NCc4ccc5c(n4)NC(=O)CO5)CC3)c2c1" > 333 µM

----------
Experiment: AUC(infinity) in neutropenic mouse at 200 mg/kg/day, ip bid of total 12 doses
Format: ADME, organism-based
Set-up: dose 200 mg/kg/day, time infinity, route intraperitoneal
Conditions: plasma
READOUT: AUC(0-inf) (ng·h/mL)
Give bare numbers, in ng·h/mL.

Find the measured AUC(0-inf) of "N[C@@H](Cn1c(=O)cnc2ccc(F)cc21)[C@H]1CC[C@H](NCc2ncc3c(n2)NC(=O)CO3)CC1" and report it. 29900

----------
Provide the recorded IC50 for the entries that follow.
Molecular target: Sodium channel protein type 5 subunit alpha (Homo sapiens, UniProt Q14524)
Sequence (Q14524 whole entry): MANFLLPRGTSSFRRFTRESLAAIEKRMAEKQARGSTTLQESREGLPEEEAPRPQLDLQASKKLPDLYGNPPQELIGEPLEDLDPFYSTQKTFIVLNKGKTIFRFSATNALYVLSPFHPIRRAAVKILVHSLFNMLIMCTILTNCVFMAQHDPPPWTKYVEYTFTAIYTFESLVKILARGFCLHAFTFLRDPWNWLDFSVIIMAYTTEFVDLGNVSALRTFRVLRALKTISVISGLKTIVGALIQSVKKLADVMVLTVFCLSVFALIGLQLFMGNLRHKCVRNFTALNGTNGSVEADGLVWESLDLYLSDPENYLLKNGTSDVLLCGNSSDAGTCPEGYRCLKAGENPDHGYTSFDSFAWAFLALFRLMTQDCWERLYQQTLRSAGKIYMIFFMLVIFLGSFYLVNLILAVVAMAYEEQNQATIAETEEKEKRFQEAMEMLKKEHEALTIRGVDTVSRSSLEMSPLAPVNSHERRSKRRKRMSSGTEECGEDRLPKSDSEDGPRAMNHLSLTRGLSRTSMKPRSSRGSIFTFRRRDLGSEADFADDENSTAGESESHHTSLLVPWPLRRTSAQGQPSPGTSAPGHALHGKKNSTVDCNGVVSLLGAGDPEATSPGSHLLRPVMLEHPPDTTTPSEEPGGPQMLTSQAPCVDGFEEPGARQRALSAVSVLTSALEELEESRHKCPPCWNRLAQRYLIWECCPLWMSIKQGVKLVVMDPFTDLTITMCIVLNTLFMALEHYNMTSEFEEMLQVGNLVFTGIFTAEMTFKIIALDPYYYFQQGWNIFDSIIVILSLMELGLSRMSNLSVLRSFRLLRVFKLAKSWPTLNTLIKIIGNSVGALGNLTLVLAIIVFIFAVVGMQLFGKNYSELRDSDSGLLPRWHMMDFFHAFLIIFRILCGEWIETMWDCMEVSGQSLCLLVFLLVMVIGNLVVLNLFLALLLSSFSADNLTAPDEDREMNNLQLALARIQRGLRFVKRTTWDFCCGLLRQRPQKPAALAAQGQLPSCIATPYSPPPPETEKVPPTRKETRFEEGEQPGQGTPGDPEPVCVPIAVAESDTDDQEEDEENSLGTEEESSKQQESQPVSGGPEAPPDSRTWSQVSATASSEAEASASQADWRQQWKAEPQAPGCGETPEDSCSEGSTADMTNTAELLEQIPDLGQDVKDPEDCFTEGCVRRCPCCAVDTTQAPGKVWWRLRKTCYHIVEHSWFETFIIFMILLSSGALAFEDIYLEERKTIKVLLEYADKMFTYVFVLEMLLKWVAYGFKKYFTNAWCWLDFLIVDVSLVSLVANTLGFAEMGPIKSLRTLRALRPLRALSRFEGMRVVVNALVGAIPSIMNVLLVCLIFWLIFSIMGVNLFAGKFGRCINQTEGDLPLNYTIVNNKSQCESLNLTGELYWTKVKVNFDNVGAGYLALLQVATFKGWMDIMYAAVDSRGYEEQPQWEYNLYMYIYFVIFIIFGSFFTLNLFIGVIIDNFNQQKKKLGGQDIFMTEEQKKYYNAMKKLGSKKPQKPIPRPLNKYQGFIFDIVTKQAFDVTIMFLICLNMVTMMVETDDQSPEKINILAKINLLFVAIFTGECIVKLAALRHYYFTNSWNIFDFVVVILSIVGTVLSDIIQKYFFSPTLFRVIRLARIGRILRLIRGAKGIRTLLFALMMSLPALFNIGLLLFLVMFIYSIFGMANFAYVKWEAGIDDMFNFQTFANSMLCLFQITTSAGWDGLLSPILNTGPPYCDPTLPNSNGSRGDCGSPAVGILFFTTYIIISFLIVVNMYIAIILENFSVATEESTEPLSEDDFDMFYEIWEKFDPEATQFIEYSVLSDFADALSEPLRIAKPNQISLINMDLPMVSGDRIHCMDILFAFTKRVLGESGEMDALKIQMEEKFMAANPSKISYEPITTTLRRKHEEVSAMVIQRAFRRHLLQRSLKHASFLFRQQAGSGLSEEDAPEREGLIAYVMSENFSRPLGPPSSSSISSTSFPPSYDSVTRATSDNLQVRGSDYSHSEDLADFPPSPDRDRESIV
Test: Inhibition of […] channel Nav1.5 (unknown origin)

Here is how some compounds turned out for IC50.
| STRUCTURE | IC50 |
| --- | --- |
| COc1ccc2ncc(=O)n(CCN3CCC(NCc4ccc5c(n4)NC(=O)CO5)CC3)c2c1 | 92 µM |
| COc1cnc2ccc(=O)n(C[C@H](N)[C@H]3CC[C@H](NCc4ccc5c(n4)NC(=O)CO5)CC3)c2c1 | > 333 µM |

For the compound "N[C@@H](Cn1c(=O)cnc2ccc(F)cc21)[C@H]1CC[C@H](NCc2ncc3c(n2)NC(=O)CO3)CC1" , report IC50. > 333 µM

----------
Test: Fraction unbound in human plasma by LC/MS-MS analysis
Format: ADME, cell-free
READOUT: fraction unbound
One number for each entry.

| COMPOUND | VALUE |
| --- | --- |
| COc1ccc2ncc(=O)n(CC(N)C3(F)CCC(NCc4ccc5c(n4)NC(=O)CO5)CC3)c2c1 (racemic) | 0.68 |
| COc1ccc2ncc(=O)n(C[C@H](N)[C@H]3CC[C@H](NCc4ccc5c(n4)NC(=O)CO5)CC3)c2c1 | 0.7 |

Kindly review the next compound as well.
Note fraction unbound for the compound shown: "COc1cnc2ccc(=O)n(C[C@H](N)[C@H]3CC[C@H](NCc4ccc5c(n4)NC(=O)CO5)CC3)c2c1" 0.78

----------
I'd appreciate it if you could supply MIC90 values for the items below.
Tested on: Staphylococcus aureus
Assay: Antimicrobial activity against methicillin-susceptible Staphylococcus aureus after 18 to 20 hrs by broth microdilution
Format: functional
Numbers only, in µg/mL.

| MOLECULE | TARGET_OF_ASSAY | MIC90 [µg/mL] |
| --- | --- | --- |
| Cc1cc(=O)n(C[C@H](N)[C@H]2CC[C@H](NCc3ncc4c(n3)NC(=O)CO4)CC2)c2cc(F)ccc12 | Staphylococcus aureus | 4 |
| N[C@@H](Cn1c(=O)cnc2ccc(F)cc21)[C@H]1CC[C@H](NCc2ccc3c(n2)NC(=O)CO3)CC1 | Staphylococcus aureus | 1 |
| COc1ccc2ccc(=O)n(C[C@H](N)[C@H]3CC[C@H](NCc4ncc5c(n4)NC(=O)CO5)CC3)c2c1 | Staphylococcus aureus | 8 |
| COc1cnc2ccc(=O)n(C[C@@H](N)[C@H]3CC[C@H](NCc4ccc5c(n4)NC(=O)CO5)CC3)c2c1 | Staphylococcus aureus | 128 |
| COc1cnc2ccc(=O)n(C[C@H](N)[C@H]3CC[C@H](NCc4ccc5c(n4)NC(=O)CO5)CC3)c2c1 | Staphylococcus aureus | 8 |

// each listed molecule needs a value for MIC90
1. N[C@@H](Cn1c(=O)ccc2ncc(F)cc21)[C@H]1CC[C@H](NCc2ccc3c(n2)NC(=O)CO3)CC1
2. COc1ccc2ncc(=O)n(CC(N)C3(F)CCC(NCc4ccc5c(n4)NC(=O)CO5)CC3)c2c1 (racemic)

1. 16
2. 0.5

----------
Would you mind telling me the reported IC50 of each entry?
Molecular target: Voltage-dependent L-type calcium channel subunit alpha-1C (Homo sapiens, UniProt Q13936)
Experiment: Inhibition of […] channel Cav1.2 (unknown origin)

Example results:
| STRUCTURE | VALUE |
| --- | --- |
| COc1ccc2ncc(=O)n(CCN3CCC(NCc4ccc5c(n4)NC(=O)CO5)CC3)c2c1 | > 333 µM |
| N[C@@H](Cn1c(=O)cnc2ccc(F)cc21)[C@H]1CC[C@H](NCc2ncc3c(n2)NC(=O)CO3)CC1 | > 333 µM |

Next, consider the following compound.
Assign IC50 to the following record: "COc1cnc2ccc(=O)n(C[C@H](N)[C@H]3CC[C@H](NCc4ccc5c(n4)NC(=O)CO5)CC3)c2c1" > 333 µM

----------
Molecular target: Voltage-gated inwardly rectifying potassium channel KCNH2 (Homo sapiens, UniProt Q12809)
Sequence (Q12809 whole entry): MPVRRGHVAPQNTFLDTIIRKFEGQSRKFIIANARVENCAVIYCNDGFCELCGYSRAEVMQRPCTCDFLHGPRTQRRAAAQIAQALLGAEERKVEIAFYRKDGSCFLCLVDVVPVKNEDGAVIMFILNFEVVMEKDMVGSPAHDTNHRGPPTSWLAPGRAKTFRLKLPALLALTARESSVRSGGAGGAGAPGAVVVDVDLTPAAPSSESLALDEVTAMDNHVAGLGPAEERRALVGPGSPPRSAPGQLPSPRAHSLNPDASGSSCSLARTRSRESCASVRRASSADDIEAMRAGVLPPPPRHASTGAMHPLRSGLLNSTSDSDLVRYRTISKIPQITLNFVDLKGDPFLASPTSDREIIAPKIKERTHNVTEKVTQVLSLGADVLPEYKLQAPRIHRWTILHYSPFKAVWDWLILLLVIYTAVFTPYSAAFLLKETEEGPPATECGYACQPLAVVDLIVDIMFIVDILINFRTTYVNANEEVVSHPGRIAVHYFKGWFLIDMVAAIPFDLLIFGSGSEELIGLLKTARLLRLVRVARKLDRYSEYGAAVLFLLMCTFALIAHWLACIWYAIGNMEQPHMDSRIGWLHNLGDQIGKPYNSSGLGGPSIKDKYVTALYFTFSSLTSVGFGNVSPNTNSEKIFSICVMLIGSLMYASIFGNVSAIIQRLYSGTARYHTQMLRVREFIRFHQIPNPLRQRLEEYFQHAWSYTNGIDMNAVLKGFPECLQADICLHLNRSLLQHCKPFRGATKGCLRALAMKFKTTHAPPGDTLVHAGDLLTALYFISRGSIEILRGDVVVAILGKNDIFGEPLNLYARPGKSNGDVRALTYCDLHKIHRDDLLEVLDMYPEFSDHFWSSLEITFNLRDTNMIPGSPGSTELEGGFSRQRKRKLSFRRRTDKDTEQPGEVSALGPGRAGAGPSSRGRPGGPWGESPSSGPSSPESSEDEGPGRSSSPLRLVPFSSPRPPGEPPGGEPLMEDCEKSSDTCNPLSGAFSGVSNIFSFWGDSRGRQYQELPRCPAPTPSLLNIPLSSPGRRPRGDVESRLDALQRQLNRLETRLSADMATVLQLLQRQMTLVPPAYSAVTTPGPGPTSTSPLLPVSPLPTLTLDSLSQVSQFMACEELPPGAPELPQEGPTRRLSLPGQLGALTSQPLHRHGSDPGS
Assay: Inhibition of human ERG by cell-based patch clamp method
READOUT: IC50

Use the examples below as a reference point.
| MOLECULE | IC50 |
| --- | --- |
| COc1ccc2ccc(=O)n(C[C@H](N)[C@H]3CC[C@H](NCc4ncc5c(n4)NC(=O)CO5)CC3)c2c1 | > 100 µM |
| COc1cnc2ccc(=O)n(C[C@H](N)[C@H]3CC[C@H](NCc4ccc5c(n4)NC(=O)CO5)CC3)c2c1 | > 333 µM |
| COc1ccc2ncc(=O)n(CC(N)C3(F)CCC(NCc4ccc5c(n4)NC(=O)CO5)CC3)c2c1 (racemic) | > 33 µM |
| COc1cnc2ccc(=O)n(C[C@@H](N)[C@H]3CC[C@H](NCc4ccc5c(n4)NC(=O)CO5)CC3)c2c1 | > 100 µM |
| COc1ccc2ncc(=O)n(C[C@H](N)[C@H]3CC[C@H](NCc4ncc5c(n4)NC(=O)CO5)CC3)c2c1 | > 333 µM |
| N[C@@H](Cn1c(=O)ccc2ncc(F)cc21)[C@H]1CC[C@H](NCc2ccc3c(n2)NC(=O)CO3)CC1 | > 100 µM |

From here, focus on the item given below.
For the molecule "Cc1cc(=O)n(C[C@H](N)[C@H]2CC[C@H](NCc3ncc4c(n3)NC(=O)CO4)CC2)c2cc(F)ccc12" , report IC50. > 333 µM

----------
Assay: Half life in rat at 10 mg/kg, iv
Type: ADME, organism-based
Parameters: dose 10 mg/kg, route intravenous
Conditions: in vivo
Could you please report measured half-life for the items listed next?
Numbers only, in h.

Would you please look over these solved cases?
| STRUCTURE | UNIT_TAG | half-life |
| --- | --- | --- |
| COc1cnc2ccc(=O)n(C[C@H](N)[C@H]3CC[C@H](NCc4ccc5c(n4)NC(=O)CO5)CC3)c2c1 | h | 9 |
| COc1ccc2ncc(=O)n(CCN3CCC(NCc4ccc5c(n4)NC(=O)CO5)CC3)c2c1 | h | 1.9 |

Tell me measured half-life for "N[C@@H](Cn1c(=O)cnc2ccc(F)cc21)[C@H]1CC[C@H](NCc2ncc3c(n2)NC(=O)CO3)CC1" please. 10

----------
Experiment: Partition co-efficient, log D of the compound at pH 7.4 by shake flask method
Format: physicochemical
Details: buffer
Consider the reported logD of an entry and match it to a band in bin A = under -0.5, bin B = from -0.5 up to -0.3, bin C = -0.3 and over

# bin lookup: classify "N[C@@H](Cn1c(=O)cnc2ccc(F)cc21)[C@H]1CC[C@H](NCc2ncc3c(n2)NC(=O)CO3)CC1" by its logD bin B

Lab note: sort "COc1cc2c(cc1F)ncc(=O)n2C[C@H](N)[C@H]1CC[C@H](NCc2ncc3c(n2)NC(=O)CO3)CC1" into the matching logD band. bin B

----------
Please provide measured MIC90 for the entries that follow.
System: Escherichia coli
Assay: Antimicrobial activity against Escherichia coli W3110 after 18 to 20 hrs by broth microdilution
Type: functional
Conditions: K-12 substr. W3110
One number for each entry, in µg/mL.

Here is how some compounds turned out for MIC90.
| COMPOUND | MIC90 / µg/mL |
| --- | --- |
| CNC(Cn1c(=O)cnc2cc(F)c(OC)cc21)[C@H]1CC[C@H](NCc2ncc3c(n2)NC(=O)CO3)CC1 (mixture of isomers) | 16 |
| COc1ccc2ccc(=O)n(C[C@H](N)[C@H]3CC[C@H](NCc4ncc5c(n4)NC(=O)CO5)CC3)c2c1 | 0.5 |

Please turn your attention to the following entry.
Complete the entry with MIC90 for "COc1ccc2ncc(=O)n(C[C@H](N)[C@H]3CC[C@H](NCc4ncc5c(n4)NC(=O)CO5)CC3)c2c1" 0.2
